# target_desc: T1, human G-protein-coupled receptor family C group 5 member D (GPRC5D) (human, UniProt Q9NZD1 1-345)
# T1 construct: whole, on cells; also called human GPRC5D protein
# test_description: FACS, CHO-K1/GPRC5D
endpoint_label: LogEC50
Please reply with the number alone, leaving off any unit.

Ask: Fill in: LogEC50 of 6G10D9-XI (antibody, V domains shown, also called 6G10D9 (chimeric); 6G1009-X1) VH: QVQLQQSGAELARPGASVKMSCKASGYTFTTYTMHWVKQRPGQGLEWLGYINPSSGYTNYNQKFKDKATLTAGKSSSTAYMQLSSLTSEDSAVYYCASLRSRGYFDYWGQGTTLTVSS VL: DIVMTQSQTFMSTSVGDRVRITCKASQNVGTAVVWYQQKTGQSPRLLIYSASNRYTGVPDRFTGSGSGTDFTLTISNMQSEDLADFFCQQYSSYPYTFGGGTKLEIK is ___
Result: 0.299
